# experimental-details: Solubility of crystal form A in different solvents
# Type: physicochemical
# condition-info: organic solvent or mixture, thermodynamic from solid; Methylbenzene, room temperature
observable: solubility

Ask | Tell us which solubility value is on record for Cn1c(=O)n(C[C@H]2CC[C@@](C)(O)CC2)c(=O)c2c1ncn2CC1CC1 [Crystal Form A]
Reply | < 1000 µg/mL

====

# experimental-details: Evaluation on pharmacokinetics of compound in SD rats
# Type: in vivo
# condition-info: male, Sprague-Dawley, rat, plasma, single intravenous injection and oral administration, read-out: Clearance rate
Below: a set of entries, each annotated with reported clearance.
Unit mL/min/kg implied. Number only.

In [3]: df
Out[3]:
                                   compound  observable  output_unit  endpoint_result
0  Cn1c(=O)n(C[C@H]2CC[C@@](C)(O)CC2)c(=O)c2c1ncn2CC1CC1   clearance    mL/min/kg             54.4

Ask | Specify clearance for CC(=O)CCCCn1c(=O)c2c(ncn2C)n(C)c1=O [Pentoxifylline, reference compound] and stop.
Reply | 74.1
